- subject-of-test: recombinant human MER (Homo sapiens)
- Sequence (Q12866 21-999): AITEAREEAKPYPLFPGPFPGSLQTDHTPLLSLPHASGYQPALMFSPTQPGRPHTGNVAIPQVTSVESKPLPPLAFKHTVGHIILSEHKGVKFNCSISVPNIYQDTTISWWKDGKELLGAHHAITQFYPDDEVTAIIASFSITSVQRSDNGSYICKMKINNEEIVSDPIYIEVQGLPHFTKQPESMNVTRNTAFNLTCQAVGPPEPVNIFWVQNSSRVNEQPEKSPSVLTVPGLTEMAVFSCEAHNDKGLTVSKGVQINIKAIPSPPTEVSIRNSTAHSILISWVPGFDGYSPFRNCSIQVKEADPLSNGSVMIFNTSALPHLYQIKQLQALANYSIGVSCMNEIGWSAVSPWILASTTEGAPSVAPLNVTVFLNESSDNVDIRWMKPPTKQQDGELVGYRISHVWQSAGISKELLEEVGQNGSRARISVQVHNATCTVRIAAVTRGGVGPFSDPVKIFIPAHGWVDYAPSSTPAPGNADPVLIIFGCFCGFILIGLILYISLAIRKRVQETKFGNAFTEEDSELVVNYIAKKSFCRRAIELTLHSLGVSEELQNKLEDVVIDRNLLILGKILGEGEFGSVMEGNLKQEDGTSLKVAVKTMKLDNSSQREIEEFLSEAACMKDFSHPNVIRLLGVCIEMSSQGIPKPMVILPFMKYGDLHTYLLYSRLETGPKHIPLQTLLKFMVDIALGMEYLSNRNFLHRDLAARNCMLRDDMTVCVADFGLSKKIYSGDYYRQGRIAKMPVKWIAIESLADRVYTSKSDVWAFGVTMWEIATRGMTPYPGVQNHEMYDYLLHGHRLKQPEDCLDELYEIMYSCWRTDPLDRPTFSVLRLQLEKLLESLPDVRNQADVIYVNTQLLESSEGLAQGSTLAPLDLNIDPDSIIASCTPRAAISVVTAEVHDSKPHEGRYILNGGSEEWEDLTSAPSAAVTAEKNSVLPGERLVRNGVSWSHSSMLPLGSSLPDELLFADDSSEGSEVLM
- method-summary: Biochemical potency, HTRF KinEASE-TK kinase assay
- experimental-context: 1 nM MER, 700 μM ATP
pIC50: −log10 of the molar value.
recorded-metric: pIC50

> print(dat)
                                  smiles.str   test.result
 1  Cc1ccc(C)c(-c2ccc(-c3n[nH]c4ncc(-c5ccc6c(c5)CC[C@@H](N5C7COC[C@H]5C7)CC6)cc34)nc2)n1  6.00 to 7.00
 2  Cc1cccnc1-c1ccc(-c2c[nH]c3ncc(-c4ccc5c(c4)CC[C@@](C)(N4CCC[C@H]4C)CC5)cc23)cc1        > 7.00
 3  c1ccc(-c2ccc(-c3c[nH]c4ncc(-c5ccc6c(c5)CC[C@@H](N5C[C@@H]7C[C@H]5CO7)CC6)cc34)cc2)nc1  6.00 to 7.00
 4  COC[C@H]1CCN([C@H]2CCc3ccc(-c4cnc5[nH]nc(-c6ccc(-c7ncccc7C)cc6)c5c4)cc3CC2)C1        > 7.00
 5  Cc1cnc(-c2ccc(-c3c[nH]c4ncc(-c5ccc6c(c5)CC[C@@H](N5C7COCC5C7)CC6)cc34)cc2)c(C)n1  6.00 to 7.00
 6  COc1cccnc1-c1ccc(-c2c[nH]c3ncc(-c4ccc5c(c4)CC[C@@H](N4C6COCC4C6)CC5)cc23)cc1  6.00 to 7.00
 7  O=C1CCCN1c1cccnc1-c1ccc(-c2c[nH]c3ncc(-c4ccc5c(c4)CC[C@@H](N4C6COCC4C6)CC5)cc23)cc1  6.00 to 7.00
 8  CN(C)C(=O)c1cccnc1-c1ccc(-c2n[nH]c3ncc(-c4ccc5c(c4)CC[C@@H](N4C6COCC4C6)CC5)cc23)cc1  6.00 to 7.00
 9  Cc1nccnc1-c1ccc(-c2c[nH]c3ncc(-c4ccc5c(c4)CC[C@@H](N4C6COCC4C6)CC5)cc23)nc1        < 6.00
10  Cc1cncnc1-c1ccc(-c2c[nH]c3ncc(-c4ccc5c(c4)CC[C@@H](N4C6COCC4C6)CC5)cc23)cc1        > 7.00
11  O=C(c1cccnc1-c1ccc(-c2c[nH]c3ncc(-c4ccc5c(c4)CC[C@@H](N4C6COCC4C6)CC5)cc23)cc1)N1CCCC1  6.00 to 7.00
12  c1cnc(-c2ccc(-c3c[nH]c4ncc(-c5ccc6c(c5)CC[C@@H](N5C7COCC5C7)CC6)cc34)cc2)c(C2CC2)c1  6.00 to 7.00
13  Cc1ccccc1-c1ccc(-c2c[nH]c3ncc(-c4ccc5c(c4)CC[C@@H](N4C6COCC4C6)CC5)cc23)nc1        < 6.00

###

Attribute: IC50
- subject-of-test: recombinant human TYRO3 (Homo sapiens)
- Sequence (Q06418 41-890): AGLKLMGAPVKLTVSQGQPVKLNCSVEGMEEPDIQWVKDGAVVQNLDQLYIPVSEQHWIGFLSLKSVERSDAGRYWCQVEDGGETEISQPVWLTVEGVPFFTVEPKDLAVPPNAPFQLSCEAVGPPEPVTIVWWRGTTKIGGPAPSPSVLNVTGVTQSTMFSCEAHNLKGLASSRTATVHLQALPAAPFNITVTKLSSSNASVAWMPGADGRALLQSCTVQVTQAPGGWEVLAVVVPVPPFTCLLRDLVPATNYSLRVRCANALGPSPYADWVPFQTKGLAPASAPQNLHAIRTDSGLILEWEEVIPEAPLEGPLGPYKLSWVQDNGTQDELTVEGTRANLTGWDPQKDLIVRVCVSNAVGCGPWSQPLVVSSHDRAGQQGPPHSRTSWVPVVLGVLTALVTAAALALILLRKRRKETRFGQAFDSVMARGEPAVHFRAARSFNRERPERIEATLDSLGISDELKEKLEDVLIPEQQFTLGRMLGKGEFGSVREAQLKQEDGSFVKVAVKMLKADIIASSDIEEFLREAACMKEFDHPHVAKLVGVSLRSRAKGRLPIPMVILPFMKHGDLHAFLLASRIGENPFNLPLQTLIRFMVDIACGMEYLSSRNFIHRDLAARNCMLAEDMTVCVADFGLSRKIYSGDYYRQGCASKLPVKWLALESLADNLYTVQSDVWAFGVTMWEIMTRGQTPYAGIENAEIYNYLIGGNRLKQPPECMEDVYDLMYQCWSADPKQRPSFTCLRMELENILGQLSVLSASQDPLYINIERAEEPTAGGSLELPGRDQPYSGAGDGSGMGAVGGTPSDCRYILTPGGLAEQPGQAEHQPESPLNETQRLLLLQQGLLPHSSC
- method-summary: Biochemical potency, HTRF KinEASE-TK kinase assay
- experimental-context: 1 nM TYRO3, 700 μM ATP
recorded-metric: IC50

> print(dat)
                                    compound  recorded.metric     test.result
 1  Cc1cncnc1-c1ccc(-c2c[nH]c3ncc(-c4ccc5c(c4)CC[C@@H](N4C6COCC4C6)CC5)cc23)cc1 [Example 47]             IC50        < 100 nM
 2  Cc1cnc(-c2ccc(-c3n[nH]c4ncc(-c5ccc6c(c5)CC[C@@H](N5C7COCC5C7)CC6)cc34)cc2)c(C)c1 [Example 119]             IC50        < 100 nM
 3  Cc1ccnnc1-c1ccc(-c2c[nH]c3ncc(-c4ccc5c(c4)CC[C@@](C)(N4CCC[C@H]4C)CC5)cc23)cc1 [Example 51]             IC50        < 100 nM
 4  COc1cccnc1-c1ccc(-c2n[nH]c3ncc(-c4ccc5c(c4)CC[C@@H](N4C6COCC4C6)CC5)cc23)cc1 [Example 166]             IC50        < 100 nM
 5  CN(C)S(=O)(=O)c1cccnc1-c1ccc(-c2c[nH]c3ncc(-c4ccc5c(c4)CC[C@@H](N4C6COCC4C6)CC5)cc23)cc1 [Example 6]             IC50  100 to 1000 nM
 6  Cc1nncn1-c1ccc(-c2n[nH]c3ncc(-c4ccc5c(c4)CC[C@@H](N4C6COCC4C6)CC5)cc23)cc1 [Example 11]             IC50       > 1000 nM
 7  Cc1ncc(C)c(-c2ccc(-c3n[nH]c4ncc(-c5ccc6c(c5)CC[C@@H](N5C7COCC5C7)CC6)cc34)cc2)n1 [Example 122]             IC50        < 100 nM
 8  COc1cccnc1-c1ccc(-c2c[nH]c3ncc(-c4ccc5c(c4)CC[C@@H](N4C6COCC4C6)CC5)cc23)cc1 [Example 164]             IC50        < 100 nM
 9  CN(C)C(=O)c1cccnc1-c1ccc(-c2n[nH]c3ncc(-c4ccc5c(c4)CC[C@@H](N4C6COCC4C6)CC5)cc23)cc1 [Example 167]             IC50        < 100 nM
10  Cn1cnnc1-c1ccc(-c2n[nH]c3ncc(-c4ccc5c(c4)CC[C@@H](N4C6COCC4C6)CC5)cc23)cc1 [Example 169]             IC50        < 100 nM
11  Cc1nccnc1-c1ccc(-c2c[nH]c3ncc(-c4ccc5c(c4)CC[C@@H](N4C6COCC4C6)CC5)cc23)nc1 [Example 54]             IC50  100 to 1000 nM
12  C[C@@H]1COC(=O)N1c1cccnc1-c1ccc(-c2n[nH]c3ncc(-c4ccc5c(c4)CC[C@@H](N4C6COCC4C6)CC5)cc23)cc1 [Example 124]             IC50        < 100 nM
13  c1ccc(-c2ccc(-c3n[nH]c4ncc(-c5ccc6c(c5)CC[C@@H](N5C7COCC5C7)CC6)cc34)cc2)nc1 [Example 154]             IC50  100 to 1000 nM
14  CN(C)C(=O)c1cccc(-c2ccc(-c3n[nH]c4ncc(-c5ccc6c(c5)CC[C@@H](N5C7COCC5C7)CC6)cc34)cc2)n1 [Example 94]             IC50       > 1000 nM
15  c1ccc(-c2ccc(-c3c[nH]c4ncc(-c5ccc6c(c5)CC[C@@H](N5C7COCC5C7)CC6)cc34)cc2)nc1 [Example 155]             IC50  100 to 1000 nM
16  C[C@@H]1CCCN1[C@@]1(C)CCc2ccc(-c3cnc4[nH]nc(-c5ccc(-c6ncnn6C)cc5)c4c3)cc2CC1 [Example 112]             IC50        < 100 nM
17  Cc1ccnnc1-c1ccc(-c2n[nH]c3ncc(-c4ccc5c(c4)CC[C@@H](N4C6COCC4C6)CC5)cc23)nc1 [Example 56]             IC50  100 to 1000 nM
18  Cc1cnc(-c2ccc(-c3c[nH]c4ncc(-c5ccc6c(c5)CC[C@@](C)(N5CCC[C@H]5C)CC6)cc34)cc2)c(C)n1 [Example 57]             IC50  100 to 1000 nM
19  C[C@@H]1CCCN1[C@@]1(C)CCc2ccc(-c3cnc4[nH]nc(-c5ccc(-c6ncco6)cc5)c4c3)cc2CC1 [Example 90]             IC50  100 to 1000 nM
20  Cc1nc(-c2ccc(-c3n[nH]c4ncc(-c5ccc6c(c5)CC[C@@H](N5C7COCC5C7)CC6)cc34)cc2)n(C)n1 [Example 23]             IC50        < 100 nM
21  CCOc1cccnc1-c1ccc(-c2n[nH]c3ncc(-c4ccc5c(c4)CC[C@@H](N4C6COCC4C6)CC5)cc23)cc1 [Example 181]             IC50  100 to 1000 nM
22  O=C(c1cccnc1-c1ccc(-c2n[nH]c3ncc(-c4ccc5c(c4)CC[C@@H](N4C6COCC4C6)CC5)cc23)cc1)N1CCCC1 [Example 4]             IC50  100 to 1000 nM
23  Cc1cncnc1-c1ccc(-c2n[nH]c3ncc(-c4ccc5c(c4)CC[C@@H](N4C6COCC4C6)CC5)cc23)cc1 [Example 174]             IC50        < 100 nM
24  Fc1cc(-c2c[nH]c3ncc(-c4ccc5c(c4)CC[C@@H](N4C6COCC4C6)CC5)cc23)ccc1-c1ccccn1 [Example 40]             IC50  100 to 1000 nM
25  FC(F)(F)Oc1cccnc1-c1ccc(-c2c[nH]c3ncc(-c4ccc5c(c4)CC[C@@H](N4C6COCC4C6)CC5)cc23)cc1 [Example 103]             IC50       > 1000 nM
26  CCc1cccnc1-c1ccc(-c2c[nH]c3ncc(-c4ccc5c(c4)CC[C@@H](N4C6COCC4C6)CC5)cc23)cc1 [Example 183]             IC50        < 100 nM

Measured values drawn from patent US12195482B1 for this set.
